# Stability at 24 hours listing for each entry below
experiment: Stability determination of amidite in solvent after 24 hours (HPLC-MS, UV 254 nm); assay type: physicochemical; conditions: solvent MeCN:DCE (1:1); room temperature; grades 1-3, key not given
quantity: Stability at 24 hours

• COc1ccc(C(OCC23COC(C(n4cnc5c(=O)[nH]c(N=CN(C)C)nc54)O2)C3OP2OC(c3ccccc3)C3CCCN32)(c2ccccc2)c2ccc(OC)cc2)cc1 [D-LNA G-DMF] = 1
• COc1ccc(C(OCC2OC(n3cnc4c(=O)[nH]c(N=CN(C)C)nc43)CC2OP2OC(c3ccccc3)C3CCCN32)(c2ccccc2)c2ccc(OC)cc2)cc1 [L-DNA G-DMF] = 3
• COc1ccc(C(OCC2OC(n3cc(C)c(=O)[nH]c3=O)CC2OP2OC(c3ccccc3)C3CCCN32)(c2ccccc2)c2ccc(OC)cc2)cc1 [L-DNA T-DMF] = 3
• COc1ccc(C(OCC23COC(C(n4cc(C)c(=O)[nH]c4=O)O2)C3OP2OC(c3ccccc3)C3CCCN32)(c2ccccc2)c2ccc(OC)cc2)cc1 [D-LNA T-DMF] = 1
• COc1ccc(C(OCC23COC(C(n4cc(C)c(=O)[nH]c4=O)O2)C3OP2OC(c3ccccc3)C3CCCN32)(c2ccccc2)c2ccc(OC)cc2)cc1 [L-LNA T-DMF] = 1
• COc1ccc(C(OC[C@@]23CO[C@@H]([C@H](n4cnc5c(=O)[nH]c(NC(=O)C(C)C)nc54)O2)[C@@H]3O[P@]2O[C@H](c3ccccc3)[C@@H]3CCCN32)(c2ccccc2)c2ccc(OC)cc2)cc1 [L-LNA G-iBu] = 2
• COc1ccc(C(OCC2OC(n3cnc4c(=O)[nH]c(N=CN(C)C)nc43)CC2OP2OC(c3ccccc3)C3CCCN32)(c2ccccc2)c2ccc(OC)cc2)cc1 [D-DNA G-DMF] = 3
• COc1ccc(C(OCC2OC(n3cc(C)c(=O)[nH]c3=O)CC2OP2OC(c3ccccc3)C3CCCN32)(c2ccccc2)c2ccc(OC)cc2)cc1 [D-DNA T-DMF] = 3
